Source: paper PMC9496321

system: P2X7-mediated CD23 shedding; assay: CD23 shedding assay in RPMI8226 cells; assay type: cell-based, human; conditions: Homo sapiens, RPMI-8226; read-out: IC50, ATP-induced CD23 shedding
measurement_type: IC50 (nM)
Please give a number only; it is taken to be in nM.

Given the molecule N=C(N)NC(=O)c1nc(-c2cc3cnccc3o2)c(N2CCCCCC2)nc1N , what is its reported IC50? 2300

----------
molecular target: P2X7 (Homo sapiens); experiment: ATP-induced YO-PRO-1 uptake into human T cells (PBMCs); assay type: cell-based; design: Human peripheral blood mononuclear cells (PBMCs) were pre-incubated with DMSO (vehicle) or 30 μM 6-FPHMA; endogenous in cells; host or cells: cryopreserved human PBMCs (CD3+, CD4+, CD8+ T cells), four donors; conditions: 30 μM compound, 1 mM ATP
Sequence (Q99572 whole entry): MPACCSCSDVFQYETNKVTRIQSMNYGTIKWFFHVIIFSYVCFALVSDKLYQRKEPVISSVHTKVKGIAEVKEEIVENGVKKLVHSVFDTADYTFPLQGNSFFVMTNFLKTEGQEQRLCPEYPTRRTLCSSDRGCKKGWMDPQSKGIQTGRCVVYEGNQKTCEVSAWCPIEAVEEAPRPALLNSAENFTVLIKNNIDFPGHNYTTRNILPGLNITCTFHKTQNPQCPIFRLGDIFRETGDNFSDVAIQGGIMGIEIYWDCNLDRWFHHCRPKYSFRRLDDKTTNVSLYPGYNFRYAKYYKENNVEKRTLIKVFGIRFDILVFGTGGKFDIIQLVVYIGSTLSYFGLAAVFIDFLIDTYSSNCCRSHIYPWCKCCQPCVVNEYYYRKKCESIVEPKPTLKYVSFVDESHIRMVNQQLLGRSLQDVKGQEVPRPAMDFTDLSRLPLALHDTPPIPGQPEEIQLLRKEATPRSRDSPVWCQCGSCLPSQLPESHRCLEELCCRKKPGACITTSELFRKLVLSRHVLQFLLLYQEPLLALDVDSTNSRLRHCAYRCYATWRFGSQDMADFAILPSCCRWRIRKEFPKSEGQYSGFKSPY
reduction of ATP-induced YO-PRO-1 uptake into CD4+ T cells values by entry
Please give a number only; it is taken to be in %.

| entry_smiles | assay_value |
| --- | --- |
| Cc1nc(N=Nc2ccc(S(=O)(=O)O)cc2S(=O)(=O)O)c(COP(=O)(O)O)c(C=O)c1O | 85 |

Given the compound N=C(N)NC(=O)c1nc(-c2cc3cnccc3o2)c(N2CCCCCC2)nc1N , what is its reported reduction of ATP-induced YO-PRO-1 uptake into CD4+ T cells? 62

Entry O=C(NCC1(N2CCN(c3ccccc3)CC2)CCOCC1)c1cccnc1Sc1ccccc1 please 78

Entry CCOc1ccc(Nc2ccc(/C(=C3C=C/C(=[N+](/CC)Cc4cccc(S(=O)(=O)[O-])c4)C=C/3C)c3ccc(N(CC)Cc4cccc(S(=O)(=O)O)c4)cc3C)cc2)cc1 please 83
